- EXPERIMENT: Cytotoxicity against HEK293 cells assessed as decrease in cell viability after 48 hrs by MTT assay
- Format: toxicity, cell-based
- ASSAY CONTEXT: human
PROPERTY NAME: IC50 at 48 h (µM)
Write the number in µM without appending the unit.

// field: IC50 at 48 h; key: "C/C(=C\CC/C(C)=C/Cc1cc(C(=O)O)ccc1N)CC/C=C(\C)CC/C=C(\C)CCC(=O)O" ; value = 6.45

The compound identified as C=C1C(=O)O[C@@H]2C3O[C@]3(C)CC/C=C(\C)CC[C@@H]12 (some centres not stated) registered its IC50 at 48 h at 3.1

---

Provide the recorded pIC50 for the entries that follow.
- EXPERIMENT: Cytotoxicity against human A549 cells assessed as decrease in cell viability after 48 hrs by MTT assay
- Format: functional, cell-based
- ASSAY CONTEXT: A549, 48 h
The value called pIC50 is obtained by taking minus log10 of the concentration in mol/L.

The value of pIC50 measured for the molecule "C/C(=C\CC/C(C)=C/Cc1cc(C(=O)O)ccc1N)CC/C=C(\C)CC/C=C(\C)CCC(=O)O" turned out to be 4.59

The molecule listed as C=C1C(=O)O[C@@H]2C3O[C@]3(C)CC/C=C(\C)CC[C@@H]12 (some centres not stated) shows pIC50 equal to 4.66
